Recorded values, source ChEMBL document CHEMBL1156963.

Assay: Toxicity in Albino mouse assessed as mortality after 48 hrs
Format: organism-based
Conditions: in vivo
readout.kind: LD50 at 48 h (mg/kg)

substance_smiles=c1nc2nnnn2c2c1CCCC2 readout_kind="LD50 at 48 h" observed_result=500
